observedProperty: melting point

Which melting point is reported for this compound? CCCc1c(OCCCOc2cccc3c2CCCC3)ccc2c1OC(CCCO)(CCCO)CC2O (centres undefined) 123 to 124 °C

What do you get for `CN(C)C(=O)CSc1nc2ccccc2cc1-c1ccccc1` ? 86 to 89 °C

What do you get for CC12CCC(OC(=O)c3ccc(N)cc3)CC1=CCC1C2CCC2(C)C(=NO)CCC12 (centres undefined) ? 165 to 168 °C

What do you get for `CC(C)(C)c1cc(CNC2CCCCC2)c(O)c(C(C)(C)C)c1` ? 67 to 70 °C

Next:
Which melting point is reported for this compound? `CCOCCOc1ccc(-c2nc(-c3ccc(OC)cc3)nc(-c3ccc(OCCOCC)cc3O)n2)c(O)c1` 155 to 158 °C

What do you get for O=C(NC1CCN(CCC2CCOc3ccccc32)CC1)c1cccnc1 (centres undefined) ? 126 to 128 °C

What do you get for O=C(OC(c1ccccc1)c1ccccc1)C1=CCC2C1C(=O)C2(Cl)Cl (centres undefined) ? 96 to 97 °C

What do you get for `CCOc1cc(OCCCc2cn(-c3ccc(C(F)(F)F)cn3)nc2OCC)ccc1CCC(=O)O` ? 96 to 97 °C

What do you get for `Nc1c(Cl)ncnc1NCc1ccc(CO)o1` ? 137 °C
